# Tested on: NCI-H358 (KRAS^G12C) non-small cell lung cancer cell
# testDescription: NCI-H358 Cancer Cell Growth Inhibition Assay (CellTiter-Glo)
# Type: cell-based, human
# setupConditions: Homo sapiens, 72 h; NCI-H358 cells, incubated for 3 days, CellTiter-Glo
# maps each entry to its GI50
reportedEndpoint: GI50 (nM)

# compound, readoutValue
data = [
    ("Cc1ccc(NC(=O)c2ccnc(C(F)(F)F)c2)cc1-c1cc(OCCO)nc(N2CCOCC2)c1 [LXH254, reference compound]", 3000),
    ("Cc1ccc(NC(=O)c2cc3c(cn2)OC(F)(F)O3)cc1-c1cc(OCCO)nc(N2CCOCC2)c1 [Example 10]", 85),
    ("Cc1ccc(NC(=O)c2ccc3c(c2)OCCO3)cc1-c1cc(OCCO)nc(N2CCOCC2)c1 [Example 13]", 1200),
]

---

# targetUnderTest: human recombinant V600E mutant BRAF (Homo sapiens, UniProt P15056, V600E)
# Sequence (P15056 whole entry V600E): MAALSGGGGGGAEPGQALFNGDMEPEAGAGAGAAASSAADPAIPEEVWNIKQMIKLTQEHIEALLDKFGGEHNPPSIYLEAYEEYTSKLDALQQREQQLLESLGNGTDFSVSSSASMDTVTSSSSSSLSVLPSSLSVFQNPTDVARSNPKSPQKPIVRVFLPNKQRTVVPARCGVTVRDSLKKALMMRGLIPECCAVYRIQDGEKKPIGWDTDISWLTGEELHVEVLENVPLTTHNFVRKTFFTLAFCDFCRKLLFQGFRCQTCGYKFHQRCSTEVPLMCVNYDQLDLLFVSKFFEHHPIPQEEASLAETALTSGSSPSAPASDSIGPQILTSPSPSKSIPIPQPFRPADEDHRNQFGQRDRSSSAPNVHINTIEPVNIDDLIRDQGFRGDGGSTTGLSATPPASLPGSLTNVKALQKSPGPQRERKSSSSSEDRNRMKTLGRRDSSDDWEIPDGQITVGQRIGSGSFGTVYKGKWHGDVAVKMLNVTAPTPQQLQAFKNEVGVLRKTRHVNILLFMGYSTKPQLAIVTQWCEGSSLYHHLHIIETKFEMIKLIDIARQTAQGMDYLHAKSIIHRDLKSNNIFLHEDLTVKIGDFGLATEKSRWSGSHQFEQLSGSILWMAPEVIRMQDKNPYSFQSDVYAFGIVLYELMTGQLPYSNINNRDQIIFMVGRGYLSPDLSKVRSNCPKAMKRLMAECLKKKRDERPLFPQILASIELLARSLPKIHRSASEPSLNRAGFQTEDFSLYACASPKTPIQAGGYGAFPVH
# testDescription: BRAF^V600E Inhibition Assay (TR-FRET)
Labels assigned by IC50 range: range A = under 20 nM, range B = from 20 nM up to 60 nM, range C = 60 nM and over

# compound, assignedCategory
measured = [
    ("Cc1ccc(NC(=O)c2ccc3c(c2)OC(C)(C)O3)cc1-c1cc(OCCO)nc(N2CCOCC2)c1", "range C"),
    ("Cc1ccc(NC(=O)c2ccnc(C(F)(F)F)c2)cc1-c1cc(OCCO)nc(N2CCOCC2)c1 [LXH254, reference compound]", "range B"),
    ("Cc1ccc(NC(=O)c2ccc3c(c2)OCCO3)cc1-c1cc(OCCO)nc(N2CCOCC2)c1", "range A"),
    ("Cc1ccc(NC(=O)c2cc3c(cn2)OC(F)(F)O3)cc1-c1cc(OCCO)nc(N2CCOCC2)c1", "range B"),
    ("Cc1ccc(NC(=O)c2ccc3c(c2)OCO3)cc1-c1cc(OCCO)nc(N2CCOCC2)c1", "range A"),
    ("Cc1ncc(NC(=O)c2ccc3c(c2)OC(F)(F)O3)cc1-c1cc(OCCO)nc(N2CCOCC2)c1", "range B"),
    ("Cc1ccc(NC(=O)c2cnc3c(c2)C(F)(F)CC3)cc1-c1cc(OCCO)nc(N2CCOCC2)c1", "range A"),
    ("Cc1ccc(NC(=O)c2ccc3c(c2)CCC3(F)F)cc1-c1cc(OCCO)nc(N2CCOCC2)c1", "range C"),
    ("Cc1ccc(NC(=O)c2ccc3c(c2)OC(F)(F)O3)cc1-c1cc(OCCO)nc(N2CCOCC2)c1", "range B"),
    ("Cc1ccc(NC(=O)c2ccc3c(c2)C(F)(F)CO3)cc1-c1cc(OCCO)nc(N2CCOCC2)c1", "range C"),
    ("Cc1ccc(NC(=O)c2cnc3c(c2)CCC3(F)F)cc1-c1cc(OCCO)nc(N2CCOCC2)c1", "range A"),
    ("Cc1ccc(NC(=O)c2ccc3c(c2)CC3)cc1-c1cc(OCCO)nc(N2CCOCC2)c1", "range A"),
    ("Cc1ccc(NC(=O)c2ccc3c(c2)C(F)(F)CC3)cc1-c1cc(OCCO)nc(N2CCOCC2)c1", "range C"),
]

---

# System: NCI-H358 (KRAS^G12C) non-small cell lung cancer cell
# testDescription: NCI-H358 Cancer Cell Growth Inhibition Assay (CellTiter-Glo)
# Assay type: cell-based, human
# setupConditions: Homo sapiens, 72 h; NCI-H358 cells, incubated for 3 days, CellTiter-Glo
reportedEndpoint: GI50 (nM)

# smi, reportedEndpoint, readoutUnits, readoutValue
measured = [
    ("Cc1ccc(NC(=O)c2ccc3c(c2)OC(F)(F)O3)cc1-c1cc(OCCO)nc(N2CCOCC2)c1", "GI50", "nM", 480),
    ("Cc1ccc(NC(=O)c2ccc3c(c2)OC(C)(C)O3)cc1-c1cc(OCCO)nc(N2CCOCC2)c1", "GI50", "nM", 220),
    ("Cc1ccc(NC(=O)c2cnc3c(c2)C(F)(F)CC3)cc1-c1cc(OCCO)nc(N2CCOCC2)c1", "GI50", "nM", 2800),
    ("Cc1ccc(NC(=O)c2ccc3c(c2)OCO3)cc1-c1cc(OCCO)nc(N2CCOCC2)c1", "GI50", "nM", 1600),
]
